target: CyclinB1/CDK1 (Homo sapiens, UniProt P14635); construct: purchased Eurofins, discovery 14-450; assay: Fluorescence Polarization (FP) competitive binding assay, Cyclin B1/Cdk1; details: 10 nM Cyclin B1/Cdk1, 2 nM FAM probe; average of 2-3 independent experiments; read-out: Cyclin B FP IC50;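 also: fluorescence polarization read after equilibration at room temperature, with IC50 taken from serially diluted dose-response curves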
*1 amine or outer side, *2 acyl side, *3 side chain or, on linkers, in order; H or OH if unused. Where a SMILES comes first, the peptide text is derived from it. Bridges are numbered along the chain shown (N, C = ends). [ ]: non-standard residue; d: D form. The star is where a group is joined. X97 = CN([C@@H](Cc1cc(Cl)ccc1-c1ccn2ncnc2c1)C(=O)[*:2])[*:1]; NMehhhLys(Me) = CN([C@@H](CCCCCCCN(C)[*:3])C(=O)[*:2])[*:1]; cBuCO(3,3-F2-1-CF3) = O=C(C1(C(F)(F)F)CC(F)(F)C1)*; Pro(trans-4-F) = O=C(O)[C@@H]1C[C@@H](F)CN1; Gly(cPr) = N[C@H](C(=O)O)C1CC1
compounds and their reported pIC50
Please keep in mind that pIC50 is minus log10 of the molar concentration; only the number is needed.

Consider the reported pIC50 for these compounds:
{"columns": ["compound", "measured_parameter", "meas_value"],
 "data": [
  ["CC(C)C[C@@H]1NC(=O)[C@@H](N(C)C(=O)[C@@H](NC(=O)[C@@H]2C[C@@H](F)CN2C(=O)C2(C(F)(F)F)CC(F)(F)C2)C2CC2)CCCCCCCN(C)C(=O)[C@H](Cc2cc(Cl)ccc2-c2ccn3ncnc3c2)N(C)C1=O [Example 179] ({cBuCO(3,3-F2-1-CF3)}-[Pro(trans-4-F)][Gly(cPr)][NMehhhLys(Me)]L[X97]; lactam 3-C)", "pIC50", 7.70],
  ["CC(C)C[C@@H]1NC(=O)[C@@H](N(C)C(=O)[C@@H](NC(=O)[C@@H]2C[C@@H](F)CN2C(=O)C2(C(F)(F)F)CC(F)(F)C2)C2CC2)CC=CCCCCNC(=O)[C@H](Cc2cc(Cl)ccc2C2=CCN(C)CC2)N(C)C1=O (single isomer, unassigned) [Example 56-P1]", "pIC50", 7.40]
]}

For the compound "CC(C)C[C@@H]1NC(=O)[C@@H](N(C)C(=O)[C@@H](NC(=O)[C@@H]2C[C@@H](F)CN2C(=O)C2(C(F)(F)F)CC(F)(F)C2)C2CC2)CC=CCCCCNC(=O)[C@H](Cc2cc(Cl)ccc2Oc2ncccn2)N(C)C1=O" , the measured pIC50 on CyclinB1/CDK1 (Homo sapiens, UniProt P14635) was 7.70

====

molecular target: CyclinE1/CDK2 (Homo sapiens, UniProt P24864); construct: purchased Eurofins, discovery 14-475; assay: Fluorescence Polarization (FP) competitive binding assay, Cyclin E1/Cdk2; details: 10 nM Cyclin E1/Cdk2, 2 nM FAM probe; average of 2-3 independent experiments; read-out: Cyclin E FP IC50
*1 amine or outer side, *2 acyl side, *3 side chain or, on linkers, in order; H or OH if unused. Where a SMILES comes first, the peptide text is derived from it. Bridges are numbered along the chain shown (N, C = ends). [ ]: non-standard residue; d: D form. The star is where a group is joined. X50 = CN([C@@H](Cc1cc(Cl)ccc1-c1ccc(N2CCN(C3COC3)CC2)cc1)C(=O)[*:2])[*:1]; X42 = CN([C@@H](Cc1cc(Cl)ccc1-c1cnn(S(=O)(=O)C2CC2)c1)C(=O)[*:2])[*:1]; NMehhhLys(Me) = CN([C@@H](CCCCCCCN(C)[*:3])C(=O)[*:2])[*:1]; Oxane2carbonyl(2R-CF3) = O=C([C@@]1(C(F)(F)F)CCCCO1)*; cBuCO(3,3-F2-1-CF3) = O=C(C1(C(F)(F)F)CC(F)(F)C1)*; Pro(trans-4-F) = O=C(O)[C@@H]1C[C@@H](F)CN1; Gly(cPr) = N[C@H](C(=O)O)C1CC1
In this section, each of the compounds is paired with its reported pIC50.
The meaning of pIC50 here: minus log10 of the concentration in molar units.

Some solved cases for reference:
{"columns": ["compound", "study_system", "meas_value"],
 "data": [
  ["CC(C)C[C@@H]1NC(=O)[C@@H](N(C)C(=O)[C@@H](NC(=O)[C@@H]2C[C@@H](F)CN2C(=O)[C@@]2(C(F)(F)F)CCCCO2)C2CC2)CCCCCCCN(C)C(=O)[C@H](Cc2cc(Cl)ccc2-c2cnn(S(=O)(=O)C3CC3)c2)N(C)C1=O [Example 283] ({Oxane2carbonyl(2R-CF3)}-[Pro(trans-4-F)][Gly(cPr)][NMehhhLys(Me)]L[X42]; lactam 3-C)", "CyclinE1/CDK2 (Homo sapiens, UniProt P24864)", 6.74],
  ["CC(C)C[C@@H]1NC(=O)[C@@H](N(C)C(=O)[C@@H](NC(=O)[C@@H]2C[C@@H](F)CN2C(=O)C2(C(F)(F)F)CCC2)C2CC2)CC=CCCCCN(C)C(=O)[C@H](Cc2cc(Cl)cnc2OC2CC2)N(C)C1=O", "CyclinE1/CDK2 (Homo sapiens, UniProt P24864)", 6.62]
]}

Query compound follows.
The compound CC(C)C[C@@H]1NC(=O)[C@@H](N(C)C(=O)[C@@H](NC(=O)[C@@H]2C[C@@H](F)CN2C(=O)C2(C(F)(F)F)CC(F)(F)C2)C2CC2)CCCCCCCN(C)C(=O)[C@H](Cc2cc(Cl)ccc2-c2ccc(N3CCN(C4COC4)CC3)cc2)N(C)C1=O [Example 346] ({cBuCO(3,3-F2-1-CF3)}-[Pro(trans-4-F)][Gly(cPr)][NMehhhLys(Me)]L[X50]; lactam 3-C) , when measured on CyclinE1/CDK2 (Homo sapiens, UniProt P24864), yielded pIC50 of 6.44

====

biological target: CyclinE1/CDK2 (Homo sapiens, UniProt P24864); construct: purchased Eurofins, discovery 14-475; assay: Fluorescence Polarization (FP) competitive binding assay, Cyclin E1/Cdk2; conditions: 10 nM Cyclin E1/Cdk2, 2 nM FAM probe; average of 2-3 independent experiments; read-out: Cyclin E FP IC50;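 also: readings taken after two-hour equilibration at room temperature in HEPES buffer with NaCl, DTT, NP-40 and BSA, IC50 fitted from eight-concentration serial dilution series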
*1 amine or outer side, *2 acyl side, *3 side chain or, on linkers, in order; H or OH if unused. Where a SMILES comes first, the peptide text is derived from it. Bridges are numbered along the chain shown (N, C = ends). [ ]: non-standard residue; d: D form. The star is where a group is joined. X34 = CN1CC(N2CCN(c3ccc(-c4ccc(Cl)cc4C[C@@H](C(=O)[*:2])N(C)[*:1])cc3)CC2)C1; X57 = CC(C)C(=O)N1C2C=C(c3ccc(Cl)cc3C[C@@H](C(=O)[*:2])N(C)[*:1])CC1CC2; NMehhhLys(Me) = CN([C@@H](CCCCCCCN(C)[*:3])C(=O)[*:2])[*:1]; X159 = CN([C@@H](Cc1cc(Cl)cnc1Oc1cnn(C)c1)C(=O)[*:2])[*:1]; NMe(hhhLys) = CN([C@@H](CCCCCCCN[*:3])C(=O)[*:2])[*:1]; cBuCO(3,3-F2-1-CF3) = O=C(C1(C(F)(F)F)CC(F)(F)C1)*; Pro(trans-4-F) = O=C(O)[C@@H]1C[C@@H](F)CN1; Gly(cPr) = N[C@H](C(=O)O)C1CC1
// reported IC50 for each item listed
Value and unit, in that order.

The cases that follow already have their IC50 on record.
{"columns": ["molecule", "measured_parameter", "meas_value"],
 "data": [
  ["CC(C)C[C@@H]1NC(=O)[C@@H](N(C)C(=O)[C@@H](NC(=O)[C@@H]2C[C@@H](F)CN2C(=O)C2(C(F)(F)F)CC(F)(F)C2)C2CC2)CCCCCCCN(C)C(=O)[C@H](Cc2cc(Cl)cnc2Oc2cnn(C)c2)N(C)C1=O [Example 323] ({cBuCO(3,3-F2-1-CF3)}-[Pro(trans-4-F)][Gly(cPr)][NMehhhLys(Me)]L[X159]; lactam 3-C)", "IC50", "240 nM"],
  ["CC(C)C[C@@H]1NC(=O)[C@@H](N(C)C(=O)[C@@H](NC(=O)[C@@H]2C[C@@H](F)CN2C(=O)C2(C(F)(F)F)CC(F)(F)C2)C2CC2)CCCCCCCNC(=O)[C@H](Cc2cc(Cl)ccc2C2=CC3CCC(C2)N3C(=O)C(C)C)N(C)C1=O (stereo partly drawn) [Example 193] ({cBuCO(3,3-F2-1-CF3)}-[Pro(trans-4-F)][Gly(cPr)][NMe(hhhLys)]L[X57]; lactam 3-C)", "IC50", "710 nM"]
]}

Continue with the next molecule.
// sample CC(C)C[C@@H]1NC(=O)[C@@H](N(C)C(=O)[C@@H](NC(=O)[C@@H]2C[C@@H](F)CN2C(=O)C2(C(F)(F)F)CC(F)(F)C2)C2CC2)CCCCCCCN(C)C(=O)[C@H](Cc2cc(Cl)ccc2-c2ccc(N3CCN(C4CN(C)C4)CC3)cc2)N(C)C1=O [Example 383] ({cBuCO(3,3-F2-1-CF3)}-[Pro(trans-4-F)][Gly(cPr)][NMehhhLys(Me)]L[X34]; lactam 3-C) , its IC50 was 530 nM
